Just for reference, ChEMBL document CHEMBL1136016 is where these values come from.

ASSAYED SYSTEM: Adenosine receptor A3 (Homo sapiens, UniProt P0DMS8)
TEST: biochemical
PROPERTY LABEL: Ki

The value of Ki measured for the compound CCn1cc2c(nc(NC(=O)Nc3ccccc3)n3nc(-c4ccco4)nc23)n1 turned out to be 0.18 nM

---

ASSAYED SYSTEM: Adenosine receptors; A1 & A3 (Homo sapiens) (UniProt P30542+P0DMS8)
TEST: Selectivity ratio (hA1/hA3)
Format: protein assay
The class of a record is decided solely by its measured Ratio; consult low bin (below 600), mid bin (600 to below 1000), high bin (1000 or more)

CCCn1cc2c(nc(NC(=O)Nc3ccc(Br)cc3)n3nc(-c4ccco4)nc23)n1
mid bin
COc1ccccc1NC(=O)Nc1nc2nn(C)cc2c2nc(-c3ccco3)nn12
mid bin

Input: Bin? CCCn1cc2c(nc(NC(=O)Nc3cccc(OC)c3)n3nc(-c4ccco4)nc23)n1
Output: mid bin

Input: Bin? Cc1ccc(NC(=O)Nc2nc3nn(C)cc3c3nc(-c4ccco4)nn23)cc1
Output: high bin

Input: Bin? CCCCn1cc2c(nc(NC(=O)Nc3ccc(C(F)(F)F)cc3)n3nc(-c4ccco4)nc23)n1
Output: low bin

Input: Bin? CCCCn1cc2c(nc(NC(=O)Nc3ccc(Cl)cc3)n3nc(-c4ccco4)nc23)n1
Output: mid bin

Input: Bin? CCCn1cc2c(nc(NC(=O)Nc3ccc(F)cc3)n3nc(-c4ccco4)nc23)n1
Output: high bin

Input: Bin? COc1ccc(NC(=O)Nc2nc3ccc(Cl)cc3c3nc(-c4ccco4)nn23)cc1
Output: low bin

Input: Bin? CCn1cc2c(nc(NC(=O)Nc3ccc4c(c3)OCO4)n3nc(-c4ccco4)nc23)n1
Output: high bin

---

ASSAYED SYSTEM: Adenosine receptor A1 (Homo sapiens, UniProt P30542)
Sequence (P30542 whole entry): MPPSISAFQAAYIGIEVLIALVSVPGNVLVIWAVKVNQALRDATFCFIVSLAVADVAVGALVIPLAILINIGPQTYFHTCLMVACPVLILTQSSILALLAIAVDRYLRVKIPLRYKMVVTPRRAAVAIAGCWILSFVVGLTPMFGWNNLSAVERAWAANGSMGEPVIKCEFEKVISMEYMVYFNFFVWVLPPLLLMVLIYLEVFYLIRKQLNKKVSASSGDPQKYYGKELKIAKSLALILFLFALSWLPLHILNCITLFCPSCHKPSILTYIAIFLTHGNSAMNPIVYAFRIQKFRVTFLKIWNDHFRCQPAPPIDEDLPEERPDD
TEST: Displacement of [3H]DPCPX from human Adenosine A1 receptor expressed in CHO cells; range 198-382
Format: cell-based
PROPERTY LABEL: pKi
Hey, just a heads up that pKi is the negative log base 10 of the concentration in molar.

The value of pKi measured for the compound CCCn1cc2c(nc(NC(=O)Nc3cccc(OC)c3)n3nc(-c4ccco4)nc23)n1 turned out to be 6.56

---

ASSAYED SYSTEM: Adenosine receptor A1 (Homo sapiens, UniProt P30542)
TEST: Displacement of [3H]DPCPX from human Adenosine A1 receptor expressed in CHO cells; range 330-486
Type: cell-based
PROPERTY LABEL: pKi
Hey, just a heads up that pKi is the negative log base 10 of the concentration in molar.

Entry CCn1cc2c(nc(NC(=O)Nc3ccc(Cl)cc3)n3nc(-c4ccco4)nc23)n1 under Adenosine receptor A1 (Homo sapiens, UniProt P30542) had pKi of 6.40

---

ASSAYED SYSTEM: UniProt:P30542
TEST: Displacement of [3H]DPCPX from human Adenosine A1 receptor expressed in CHO cells; range 184-333
Format: cell-based
PROPERTY LABEL: pKi
Hey, just a heads up that pKi is the negative log base 10 of the concentration in molar.

The value of pKi measured for the compound CCCCn1cc2c(nc(NC(=O)Nc3cccc(OC)c3)n3nc(-c4ccco4)nc23)n1 turned out to be 6.61

---

ASSAYED SYSTEM: Adenosine receptor A2b (Homo sapiens, UniProt P29275)
Sequence (P29275 whole entry): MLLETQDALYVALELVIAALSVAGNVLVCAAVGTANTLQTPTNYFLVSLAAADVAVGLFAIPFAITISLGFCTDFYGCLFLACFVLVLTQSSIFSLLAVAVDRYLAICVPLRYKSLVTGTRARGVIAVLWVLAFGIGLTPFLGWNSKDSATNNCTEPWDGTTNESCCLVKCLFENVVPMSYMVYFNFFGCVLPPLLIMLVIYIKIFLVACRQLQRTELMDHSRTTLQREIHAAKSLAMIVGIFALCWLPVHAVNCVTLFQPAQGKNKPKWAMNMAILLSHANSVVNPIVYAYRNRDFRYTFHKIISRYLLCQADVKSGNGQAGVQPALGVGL
TEST: Displacement of [3H]DPCPX from human Adenosine A2B receptor expressed in HEK293 cells; range 34-62
Assay type: cell-based
PROPERTY LABEL: Ki (nM)
# number only, unit nM dropped from output

The value of Ki measured for the molecule CCCn1cc2c(nc(NC(=O)Nc3ccc(C)cc3)n3nc(-c4ccco4)nc23)n1 turned out to be 46

---

ASSAYED SYSTEM: UniProtKB P29275
TEST: Displacement of [3H]DPCPX from human Adenosine A2B receptor expressed in HEK293 cells; range 105-170
Type: cell-based
PROPERTY LABEL: pKi
Hey, just a heads up that pKi is the negative log base 10 of the concentration in molar.

The value of pKi measured for the compound CCCCn1cc2c(nc(NC(=O)Nc3ccc(C(F)(F)F)cc3)n3nc(-c4ccco4)nc23)n1 turned out to be 6.89

---

ASSAYED SYSTEM: Adenosine receptor A3 (Homo sapiens, UniProt P0DMS8)
TEST: Displacement of [3H]MRE3008-F20 from human Adenosine A3 receptor expressed in HEK cells; range 0.37-0.56
Format: cell-based, HEK293
PROPERTY LABEL: Ki (nM)
# number only, unit nM dropped from output

The value of Ki measured for the compound CCCn1cc2c(nc(NC(=O)Nc3ccc(Br)cc3)n3nc(-c4ccco4)nc23)n1 turned out to be 0.45

---

ASSAYED SYSTEM: Adenosine receptor A2b (Homo sapiens)
TEST: Displacement of [3H]DPCPX from human Adenosine A2B receptor expressed in HEK293 cells; range 68-105
Format: cell-based
PROPERTY LABEL: Ki (nM)
# number only, unit nM dropped from output

Entry CCn1cc2c(nc(NC(=O)Nc3ccc(Cl)cc3)n3nc(-c4ccco4)nc23)n1 under Adenosine receptor A2b (Homo sapiens) had Ki of 85

---

ASSAYED SYSTEM: Adenosine receptor A2b (Homo sapiens)
TEST: Displacement of [3H]DPCPX from human Adenosine A2B receptor expressed in HEK293 cells; range 67-115
Format: cell-based
PROPERTY LABEL: Ki (nM)
# number only, unit nM dropped from output

The value of Ki measured for the molecule CCn1cc2c(nc(NC(=O)Nc3ccccc3)n3nc(-c4ccco4)nc23)n1 turned out to be 88

---

ASSAYED SYSTEM: Adenosine receptor A3 (Homo sapiens, UniProt P0DMS8)
TEST: Displacement of […] from human Adenosine A3 receptor expressed in CHO cells
Type: cell-based
Reported Ki values for the following compounds.
# number only, unit nM dropped from output

CCn1cc2c(nc(NC(=O)Nc3ccc([N+](=O)[O-])cc3)n3nc(-c4ccco4)nc23)n1
0.65
CCCn1cc2c(nc(NC(=O)Nc3ccc([N+](=O)[O-])cc3)n3nc(-c4ccco4)nc23)n1
0.81

Entry CCCCn1cc2c(nc(NC(=O)Nc3ccc([N+](=O)[O-])cc3)n3nc(-c4ccco4)nc23)n1 under Adenosine receptor A3 (Homo sapiens, UniProt P0DMS8) had Ki of 0.55

Entry Cn1cc2c(nc(NC(=O)Nc3ccc([N+](=O)[O-])cc3)n3nc(-c4ccco4)nc23)n1 under Adenosine receptor A3 (Homo sapiens, UniProt P0DMS8) had Ki of 0.43

---

ASSAYED SYSTEM: Adenosine receptor A3 (Homo sapiens)
TEST: biochemical
PROPERTY LABEL: Ki (nM)
# number only, unit nM dropped from output

The value of Ki measured for the compound CCCCn1cc2c(nc(NC(=O)Nc3ccccc3OC)n3nc(-c4ccco4)nc23)n1 turned out to be 0.57

---

ASSAYED SYSTEM: Adenosine receptor A3 (Homo sapiens, UniProt P0DMS8)
Sequence (P0DMS8 whole entry): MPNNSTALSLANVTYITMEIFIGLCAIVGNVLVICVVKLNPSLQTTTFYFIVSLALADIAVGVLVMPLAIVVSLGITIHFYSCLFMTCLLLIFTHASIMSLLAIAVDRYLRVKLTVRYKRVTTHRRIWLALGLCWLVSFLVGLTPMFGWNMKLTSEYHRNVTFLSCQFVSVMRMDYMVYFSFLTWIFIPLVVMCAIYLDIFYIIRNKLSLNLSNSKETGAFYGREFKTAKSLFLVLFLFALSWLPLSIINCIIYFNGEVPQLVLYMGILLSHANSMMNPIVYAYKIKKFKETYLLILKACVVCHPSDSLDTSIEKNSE
TEST: Displacement of [3H]MRE3008-F20 from human Adenosine A3 receptor expressed in HEK cells; range 2.7-3.4
Assay type: cell-based, HEK293
PROPERTY LABEL: Ki (nM)
# number only, unit nM dropped from output

The value of Ki measured for the molecule CCn1cc2c(nc(NC(=O)Nc3ccc(Cl)c(Cl)c3)n3nc(-c4ccco4)nc23)n1 turned out to be 3

---

ASSAYED SYSTEM: Adenosine receptor A3 (Homo sapiens)
TEST: Displacement of [3H]MRE3008-F20 from human Adenosine A3 receptor expressed in HEK cells; range 0.10-0.18
Format: cell-based, HEK293
PROPERTY LABEL: Ki (nM)
# number only, unit nM dropped from output

The value of Ki measured for the compound CCCn1cc2c(nc(NC(=O)Nc3ccccc3)n3nc(-c4ccco4)nc23)n1 turned out to be 0.15

---

ASSAYED SYSTEM: Adenosine receptor A3 (Homo sapiens, UniProt P0DMS8)
TEST: Inhibition of IB-MECA agonist-mediated cAMP production in membranes of CHO cells expressing human Adenosine A3 receptor; range 1.2-4.9
Format: functional, cell-based
PROPERTY LABEL: IC50 (nM)
# number only, unit nM dropped from output

The value of IC50 measured for the compound Cn1cc2c(nc(NC(=O)Nc3ccc(Cl)cc3)n3nc(-c4ccco4)nc23)n1 turned out to be 2.4
